- Tested on: T-47D breast
- assay_summary: NCI tumour cell line growth inhibition, 48 h
This section presents molecules with their documented TGI values.

molecule | measured_on | TGI
CCC(=O)n1c(=O)n(-c2ccc([N+](=O)[O-])cc2)c(=O)n1C(=O)CC | T-47D breast | > 100 µM
COc1cc(C(c2cc(OC)c(OC)c(OC)c2)N2C(=O)CCC2C(=O)O)cc(OC)c1OC (centres undefined) | T-47D breast | > 100 µM
CCOc1ccc(C(c2c(O)c3ccccc3oc2=O)c2c(O)c3ccccc3oc2=O)cc1 | T-47D breast | > 100 µM
CCCCc1oc2ccccc2c1C(=O)c1cc(I)c(OCCN(CC)CC)c(I)c1 | T-47D breast | 12.2 µM
S=C1NC2=C(COC/C2=C\c2ccccc2Cl)C(c2ccccc2Cl)N1 (centres undefined) | T-47D breast | > 100 µM

Task item: Need TGI of CCOc1ccc(-n2c(=O)n3c(Nc4ccc(Cl)cc4)nc4c(c(=O)n(C)c(=O)n4C)n3c2=O)cc1 , thanks.
Reply: > 100 µM

Task item: What do we get for CCCCCC/C=C\CCCCCCCCCc1c(O)c(OC)cc(O)c1CN(C)C ?
Reply: 4.2 µM

Task item: What do we get for Cc1ccc(C(=O)Nc2ccccc2C(=O)N/N=C(\c2ccccc2)c2ccccn2)cc1 ?
Reply: > 100 µM

Task item: What do we get for CC(C)(C)n1cc(-c2ccnc(NCCCNS(=O)(=O)c3ccc(Cl)cc3)c2)c(-c2cccc(O)c2)n1 ?
Reply: 5.51 µM
